- assay details: maximum solubility in tissue culture media
- Assay type: physicochemical
- condition parameters: aqueous buffer
value type: solubility

input: Please supply the value of reported solubility for the item CCCC(=O)O[C@@H]1[C@@H](OC(=O)CCC)[C@@H](O)[C@H](Oc2c(-c3ccc(O)cc3)oc3cc(O)cc(O)c3c2=O)O[C@H]1C
output: ~100 µM

---

- system: recombinant, constitutively active RSK2 (Homo sapiens, UniProt P51812)
- Sequence (P51812 1-397 limits assumed): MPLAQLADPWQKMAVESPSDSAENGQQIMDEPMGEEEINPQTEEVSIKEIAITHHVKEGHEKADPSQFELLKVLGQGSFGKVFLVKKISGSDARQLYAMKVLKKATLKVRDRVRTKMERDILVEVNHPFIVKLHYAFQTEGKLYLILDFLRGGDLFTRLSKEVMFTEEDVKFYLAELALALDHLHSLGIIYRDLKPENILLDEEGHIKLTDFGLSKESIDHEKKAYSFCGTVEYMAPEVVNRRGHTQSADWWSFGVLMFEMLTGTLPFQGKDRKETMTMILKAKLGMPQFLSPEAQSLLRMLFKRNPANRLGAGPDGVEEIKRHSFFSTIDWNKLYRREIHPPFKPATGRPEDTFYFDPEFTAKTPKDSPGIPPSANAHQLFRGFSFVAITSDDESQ
- assay details: in vitro RSK kinase assay
- Format: biochemical
- condition parameters: synthesized compounds; 10 μM ATP; 30 min; read-out: IC50 for inhibition of RSK catalytic activity in vitro
value type: IC50 (nM)
Write the number in nM without appending the unit.

input: Consider the molecule CCCC(=O)O[C@@H]1[C@@H](OC(=O)CCC)[C@@H](O)[C@H](Oc2c(-c3ccc(O)cc3)oc3cc(O)cc(O)c3c2=O)O[C@H]1C [Bu-SL0101] and give its recorded IC50.
output: 212

---

- system: recombinant, constitutively active RSK2 (Homo sapiens, UniProt P51812)
- assay details: in vitro RSK kinase assay
- Format: biochemical
- condition parameters: compounds purified from F. refracta; 10 μM ATP; 30 min; read-out: IC50 for inhibition of RSK catalytic activity in vitro
pIC50: −log10 of the molar value.
Measured pIC50, listed per entry for reference.

compound: CC(=O)OC1C(C)OC(Oc2c(-c3ccc(O)cc3)oc3cc(O)cc(O)c3c2=O)C(O)C1O (centres unmarked) [4″-mono-O-acetyl-SL0101]
pIC50: ~6.85

# ---- query compound ----
input: Identify the reported pIC50 for the following entry. CC(=O)OC1C(C)OC(Oc2c(-c3ccc(O)cc3)oc3cc(O)cc(O)c3c2=O)C(OC(C)=O)C1O (centres unmarked) [2″,4″-di-O-acetyl-SL0101]
output: ~6.59
